Assay: NCI Yeast Anticancer Drug Screen. Data for the bub3 strain (AID 167)
Conditions: S. cerevisiae bub3 mutant strain, at 50.0 µM, stronger effect = higher value
Method: Growth inhibition of yeast strains with defined genetic alterations is measured as a screen for potential anti-cancer activity. Selected strains with alterations in DNA damage repair or cell cycle control were exposed to compounds and growth inhibition was measured relative to vehicle treated controls. The strain used in this assay is bub3
The panel holds about 79,000 compounds, 15% with a hit somewhere; the sample as a whole holds those more often.
test-readout: growth inhibition (%)
Number only, in %; omit the unit.

Would you please look over these solved cases?
CCCN(CCC)CC(O)c1cccc2c1cc(Cl)c1ccccc12 (stereo unspecified): 91.3
COC(=O)C(Cc1cc(OC)c(OC)c(OC)c1)(NC(=O)c1ccccc1)P(=O)(OC)OC (stereo unspecified): 1.05
Cc1cc([N+](=O)[O-])ccc1N=NC(=O)NNc1ccc([N+](=O)[O-])cc1C: 4.15

Sample NNC(=O)C(=O)Nc1nccs1 — what was its growth inhibition?
-5.3

Which growth inhibition is reported for this compound? CC(C)Cc1c(N)nc(NCCCC(N)C(=O)O)[nH]c1=O (stereo unspecified)
9.8

Fill blank: measured growth inhibition of the compound COC(=O)C#Cc1cccc(OC)c1OC is ____.
12.3
